Target: SCD1 (Homo sapiens)
Construct: host or cells: S. cerevisiae ole1Δ strain (W303 pdr1Δ pdr3Δ background), plasmid pRS316 with TDH3 promoter and CYC1 terminator
Sequence (O00767 whole entry): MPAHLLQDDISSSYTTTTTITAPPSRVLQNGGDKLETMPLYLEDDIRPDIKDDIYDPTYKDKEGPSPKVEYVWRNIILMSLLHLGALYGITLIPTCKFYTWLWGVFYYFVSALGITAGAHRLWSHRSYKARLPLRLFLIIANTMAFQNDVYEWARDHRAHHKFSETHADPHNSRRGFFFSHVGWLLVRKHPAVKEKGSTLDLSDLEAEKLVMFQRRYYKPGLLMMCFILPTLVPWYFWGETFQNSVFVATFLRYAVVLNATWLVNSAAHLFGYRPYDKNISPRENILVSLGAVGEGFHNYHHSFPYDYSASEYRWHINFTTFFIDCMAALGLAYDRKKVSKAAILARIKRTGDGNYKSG
Experiment: Growth inhibition of humanized yeast strain expressing SCD1 as sole desaturase
Type: cell-based
Settings: humanized yeast strain expressing SCD1
Protocol: Strain oleΔ (yeast ole1 deletion mutant) was constructed by deleting OLE1 with NAT-MX6 in BY4741, amplifying the deletion cassette from the genomic DNA of the resulting strain with primers flanking the ORF by 1000 bp upstream and downstream, transforming the resulting deletion cassette into W303 pdr1Δ pdr3Δ, and plating transformants on YPD media containing G418 (200 μg/mL) and nourseothricin ([…]) with 0.01% TWEEN®-20 and 0.5 mM oleic and palmitoleic acids. […]

molecule	SCD1 % Max Inhibition, %
Cc1nn(C)c2cc(-c3noc(C4CCN(C(=O)C5CNC(=O)C5)CC4)n3)ccc12 (stereo not drawn) [Compound 126]	69.80
COc1ccc(-c2noc(C3CCN(C(=O)C(C)(C)NC(=O)c4ccccc4)CC3)n2)cc1OC [Compound 29]	69.52
CCOc1ccc(-c2noc(C3CCN(C(=O)C4CN(C(=O)c5ccccc5)C4)CC3)n2)cc1OC [Compound 237]	71.76
